CC50 overview
System: HCT116 MTAP-deleted cell lines
Assay Explanation: Cell viability assay (CellTiter-Glo, 7 days), HCT116 MTAP-deleted
Type: cell-based
Measurement Parameters: Homo sapiens, HCT-116; cell viability, HCT116 MTAP-deleted; class symbols; read-out: CC50

C[C@@H]1CN(C(=O)c2cc3c(cn2)nc(N)c2cncn23)[C@H]2c3ccc(OC(F)(F)F)c(F)c3C[C@H]2O1 (single isomer, unassigned): 100 to 1000 nM
COc1ccc2c(c1F)CO[C@H]1CCCN(C(=O)c3cc4c(cc3F)nc(N)c3cncn34)[C@@H]21 (racemic): < 100 nM
Cc1ncc2c(N)nc3ccc(C(=O)N(C)Cc4cc5cc(C(F)(F)F)ccn5n4)cc3n12: > 1000 nM
Nc1nc2cc(F)c(C(=O)N3CCO[C@@H]4Cc5c(ccc(Br)c5F)[C@@H]43)cc2n2cncc12: < 100 nM
CC(C)N(Cc1ccc(-c2ccnn2C)cc1F)C(=O)c1cc2c(cc1F)nc(N)c1cncn12: < 100 nM
CN(C(=O)c1cc2c(cc1F)nc(N)c1cncn12)C1CCc2nc(Cl)ccc21 (stereo not shown): 100 to 1000 nM

Attention now shifts to the item below.
# input molecule: C[C@H]1CN(C(=O)c2cc3c(cc2F)nc(N)c2cncn23)[C@H]2c3cc(F)c(C(F)F)cc3C[C@H]2O1 (single isomer, unassigned) ; wanted: its CC50
< 100 nM

----------
Assay Explanation: PK data (IV/PO) in cynomolgus monkey
Measurement Parameters: in vivo, IV 0.5 mg/Kg, read-out: Observed CL (converted)
Value Type: clearance (mL/min/kg)
Provide only the numeric value, understood in mL/min/kg.

# input compound: C[C@H]1CN(C(=O)c2cc3c(cc2F)nc(N)c2cncn23)[C@H]2c3ccc(C(F)(F)F)cc3C[C@H]2O1 (single isomer, unassigned) ; wanted: its clearance
3

# input compound: `Nc1nc2cc(F)c(C(=O)N3CCC[C@@H]4Oc5cc(C(F)(F)F)ccc5[C@@H]43)cc2n2cncc12` ; wanted: its clearance
3.17

----------
Predicted Hepatocyte CL overview
Assay Explanation: Hepatocyte stability assay, rat
Type: in vitro ADME
Measurement Parameters: Sprague-Dawley Rat
Please answer using a numeric value trailed by its unit.

Guide cases for Predicted Hepatocyte CL, answers given:
Nc1nc2ccc(C(=O)N3CCC[C@@H]4Oc5cc(C(F)(F)F)ccc5[C@@H]43)cc2n2cncc12 [Ff-111]: 1.67 L/h/kg
Cc1ncn2c1c(N)nc1cnc(C(=O)N3CCC[C@@H]4Oc5cc(C(F)(F)F)ccc5[C@@H]43)cc12 [Ff-499]: 2.23 L/h/kg
Nc1nc2cnc(C(=O)N3CCC[C@@H]4Oc5cc(OC(F)(F)F)ccc5[C@@H]43)cc2n2cncc12 [Ff-341]: 0.96 L/h/kg
Cc1ncc2c(N)nc3cnc(C(=O)N4CCC[C@@H]5Oc6cc(OC(F)(F)F)ccc6[C@@H]54)cc3n12 [Ff-340]: 1.19 L/h/kg
Nc1nc2cnc(C(=O)N3CCC[C@@H]4Oc5cc(OC(F)(F)F)cc(F)c5[C@@H]43)cc2n2cncc12 (single isomer, unassigned) [Fg-55]: 0.93 L/h/kg

# input molecule: Nc1nc2cnc(C(=O)N3CCC[C@@H]4Oc5cc(C(F)(F)F)cc(F)c5[C@@H]43)cc2n2cncc12 (single isomer, unassigned) [Fg-53] ; wanted: its Predicted Hepatocyte CL
1.12 L/h/kg

# input molecule: C[C@H]1CN(C(=O)c2cc3c(cc2F)nc(N)c2cncn23)[C@H]2c3ccc(C(F)(F)F)cc3C[C@H]2O1 (single isomer, unassigned) [Ff-81] ; wanted: its Predicted Hepatocyte CL
1.1 L/h/kg

----------
CC50 overview
Tested on: HCT116 MTAP-deleted cell lines
Assay Explanation: Cell viability assay (CellTiter-Glo, 7 days), HCT116 MTAP-deleted
Type: cell-based
Measurement Parameters: Homo sapiens, HCT-116; cell viability, HCT116 MTAP-deleted; class symbols; read-out: CC50

Guide cases for CC50, answers given:
Cc1ncc2c(N)nc3ccc(C(=O)N4C[C@H](C)O[C@@H]5Cc6cc(OC(F)(F)F)ccc6[C@@H]54)cc3n12 (single isomer, unassigned): 100 to 1000 nM
Cn1cc(-c2ccc(CN(C(=O)c3cc4c(cc3F)nc(N)c3cncn34)C34CC(C3)C4)c(F)c2)cn1: < 100 nM
Nc1nc2cc(F)c(C(=O)N(Cc3ccc(C(F)(F)F)cc3F)c3cnn4c3CCC4)cc2n2cncc12: < 100 nM
CC1CN(C(=O)c2cc3c(cc2F)nc(N)c2cncn23)[C@H]2c3cc(F)ccc3C[C@H]2O1 (some centres unmarked): < 100 nM

# input compound: `Nc1nc2cnc(C(=O)N3CCCC[C@@H]3c3ccc(C(F)(F)F)cc3)cc2n2cncc12` ; wanted: its CC50
< 100 nM

# input compound: `Cc1ncc2c(N)nc3cc(F)c(C(=O)N(C)[C@@H]4COc5cc(C(F)(F)F)ccc54)cc3n12` ; wanted: its CC50
< 100 nM

# input compound: `Nc1nc2cc(F)c(C(=O)N(Cc3ccc4ncsc4c3)C34CC(C3)C4)cc2n2cncc12` ; wanted: its CC50
100 to 1000 nM

# input compound: `Nc1nc2cc(F)c(C(=O)N3CCO[C@@H]4Cc5cc(C(F)F)ccc5[C@@H]43)cc2n2cncc12` ; wanted: its CC50
< 100 nM

----------
Tested on: HCT116 MTAP-deleted cell lines
Assay Explanation: Cell viability assay (CellTiter-Glo, 7 days), HCT116 MTAP-deleted
Assay type: cell-based
Measurement Parameters: Homo sapiens, HCT-116; cell viability, HCT116 MTAP-deleted; class symbols; read-out: CC50
CC50 overview

C[C@@H]1COC[C@H](c2ccc(C(F)(F)F)cn2)N1C(=O)c1cc2c(cc1F)nc(N)c1cncn12: < 100 nM
Nc1nc2cc(F)c(C(=O)N(Cc3ccc(C(F)(F)F)cn3)c3ccccc3)cc2n2cncc12: < 100 nM

# input molecule: `Nc1nc2cc(Cl)c(C(=O)N3CCOC[C@@H]3c3ccc(C(F)(F)F)cc3)cc2n2cncc12` ; wanted: its CC50
< 100 nM

# input molecule: C[C@@H]1C[C@@H]2Cc3nc(C(F)(F)F)ccc3[C@@H]2N(C(=O)c2cc3c(cc2F)nc(N)c2cncn23)C1 (racemic) ; wanted: its CC50
< 100 nM

# input molecule: `CC(C)N(Cc1ccc(C(F)(F)F)cn1)C(=O)c1cc2c(cc1F)nc(N)c1cncn12` ; wanted: its CC50
< 100 nM

# input molecule: `Cc1ncn2c(N)nc3cc(F)c(C(=O)N(Cc4ccc(C(F)(F)F)cn4)[C@H](C)c4ncccn4)cc3c12` ; wanted: its CC50
< 100 nM

# input molecule: Nc1nc2ccc(C(=O)N3CCC[C@@H]4OCc5cc(OC(F)F)ccc5[C@@H]43)cc2n2cncc12 (racemic) ; wanted: its CC50
< 100 nM

# input molecule: `Cc1ncn2c1c(N)nc1cc(F)c(C(=O)N3CCOC[C@@H]3c3ccc(C(F)(F)F)cc3)cc12` ; wanted: its CC50
< 100 nM

----------
Assay Explanation: PK data (IV/PO) in Sprague-Dawley rat
Assay type: in vivo
Measurement Parameters: Sprague-Dawley, rat, in vivo, iv, 0.25 mg/kg, IV 0.25 mg/Kg
Value Type: half-life (h)
Provide only the numeric value, understood in h.

# input compound: `Nc1nc2cnc(C(=O)N3CCC[C@@H]4Oc5cc(OC(F)(F)F)ccc5[C@@H]43)cc2n2cncc12` ; wanted: its half-life
4.6

----------
Tested on: BxPC-3 (pancreas, adenocarcinoma; MTAP-Deleted)
Assay Explanation: In vitro cell viability assay (CellTiter-Glo, 9 days), BxPC-3
Format: cell-based
Measurement Parameters: Homo sapiens, BXPC-3, 216 h, 9-day treatment
Description: Some Compounds of the Disclosure were tested in Calu-6 (Vendor: ATCC; Cat #HTB-56; Description: lung, adenocarcinoma), LU99 (Vendor: JCRB; Cat #JCRB0080; Description: lung, giant cell carcinoma), SW780 (Vendor: ATCC; Cat #CRL-2169; Description: bladder, urothelial carcinoma), and BxPC-3 (Vendor: ATCC; Cat #CRL-1687; Description: pancreas, adenocarcinoma) cellular viability assays according to the general protocol. […] Recorded luminescence with Perkin Elmer Envision 2105 machine. […]
GI50 overview
Provide only the numeric value, understood in nM.

# input compound: Nc1nc2cnc(C(=O)N3CC4(CC4)C[C@@H]4Oc5cc(C(F)(F)F)ccc5[C@@H]43)cc2n2cncc12 [Ff-648] ; wanted: its GI50
8

# input compound: Nc1nc2cnc(C(=O)N3CCC[C@@H]4Oc5cc(OC(F)(F)F)cc(F)c5[C@@H]43)cc2n2cncc12 (single isomer, unassigned) [Fg-55] ; wanted: its GI50
11

# input compound: Nc1nc2cnc(C(=O)N3CCC[C@@H]4Oc5cc(C(F)(F)F)cc(F)c5[C@@H]43)cc2n2cncc12 (single isomer, unassigned) [Fg-53] ; wanted: its GI50
7
